Test system: M. mycetomatis genome strain MM55
experimentNotes: CLSI M38-A2 based in vitro susceptibility screening (XTT or resazurin), growth at fixed concentration
Format: cell-based, Madurella mycetomatis
conditionDescription: Madurella mycetomatis, 100 uM, mean of three replicates; read-out: Percentage survival at 100um, 100 uM mean
Consider the cut-off 60%. If the recorded activity at 100 µM is strictly smaller, the label is Condition met; if not, the label is Condition not met.

Task item: Would you kindly verify if activity at 100 µM of `O=C1[C@H](CC[C@H](O)c2ccc(F)cc2)[C@@H](c2ccc(O)cc2)N1c1ccc(F)cc1` is strictly less than 60%?
Reply: Condition met

Task item: Would you kindly verify if activity at 100 µM of `N=C(N)NCCCCC(=O)Nc1cc(C(F)(F)F)cc(NC(=O)c2cc(C(=O)Nc3cc(C(F)(F)F)cc(NC(=O)CCCCNC(=N)N)c3O[C@@H]3CCNC3)ncn2)c1O[C@@H]1CCNC1` is strictly less than 60%?
Reply: Condition met

Task item: Would you kindly verify if activity at 100 µM of Oc1cccc(C(Nc2nccs2)c2ccc3cccnc3c2O)c1 (stereo not drawn) is strictly less than 60%?
Reply: Condition met

Task item: Would you kindly verify if activity at 100 µM of `[N-]=[N+]=N[C@H]1C[C@H](n2ccc(=O)[nH]c2=O)O[C@@H]1CO` is strictly less than 60%?
Reply: Condition not met

Task item: Would you kindly verify if activity at 100 µM of `O=C(O)c1sccc1S(=O)(=O)n1ccc2cc(Br)ccc21` is strictly less than 60%?
Reply: Condition not met

Task item: Would you kindly verify if activity at 100 µM of `O=c1oc2ccc(Br)cc2cc1CSc1ncc[nH]1` is strictly less than 60%?
Reply: Condition not met

Task item: Would you kindly verify if activity at 100 µM of `Nc1nc(O)c2ncn(COC(CO)CO)c2n1` is strictly less than 60%?
Reply: Condition not met

Task item: Would you kindly verify if activity at 100 µM of `NC(=O)c1c(N)sc2c1CCCCC2` is strictly less than 60%?
Reply: Condition not met

Task item: Would you kindly verify if activity at 100 µM of `COc1ccc(-n2cnc3cc(NCc4ccco4)ccc32)cc1` is strictly less than 60%?
Reply: Condition met

Task item: Would you kindly verify if activity at 100 µM of CCN(CC)CCCC(C)Nc1ccnc2cc(Cl)ccc12 (stereo not drawn) is strictly less than 60%?
Reply: Condition not met

Task item: Would you kindly verify if activity at 100 µM of COc1ccc(C2CNC(=O)C2)cc1OC1CCCC1 (stereo not drawn) is strictly less than 60%?
Reply: Condition not met

Task item: Would you kindly verify if activity at 100 µM of `Cc1ccc(N2CCC(CCOc3ccc(S(C)(=O)=O)cc3)CC2)nn1` is strictly less than 60%?
Reply: Condition not met

Task item: Would you kindly verify if activity at 100 µM of `CCCCCc1ccc(C(=O)NCCn2cc(CCCCCc3cnc(N)[nH]3)nn2)cc1` is strictly less than 60%?
Reply: Condition not met

Task item: Would you kindly verify if activity at 100 µM of `Cc1ccc(C)c(OCCCCCCN2C[C@H](O)[C@@H](O)[C@H](O)[C@H]2CO)c1` is strictly less than 60%?
Reply: Condition not met

Task item: Would you kindly verify if activity at 100 µM of `O=C(O)[C@H]1C2CCC(CC2)[C@@H]1Nc1nc(-c2c[nH]c3ncc(F)cc23)ncc1F` is strictly less than 60%?
Reply: Condition not met

Task item: Would you kindly verify if activity at 100 µM of `COc1ccc2nc(-c3ccccc3)cc(O)c2c1` is strictly less than 60%?
Reply: Condition not met

Task item: Would you kindly verify if activity at 100 µM of O=C1CCC(N2C(=O)c3ccccc3C2=O)C(=O)N1 (stereo not drawn) is strictly less than 60%?
Reply: Condition not met

Task item: Would you kindly verify if activity at 100 µM of `CC1=C(/C=C/C(C)=C/C=C/C(C)=C/C(=O)Nc2ccc(O)cc2)C(C)(C)CCC1` is strictly less than 60%?
Reply: Condition not met
